// provenance: ChEMBL document CHEMBL4308897

METHOD SUMMARY: Cytotoxicity against human U937 cells after 72 hrs by MTT assay
Format: cell-based, U-937
CONDITION SET: read-out: LC50
Each item that follows carries a reported log10(CC50 at 72 h).
ASSAY READOUT: log10(CC50 at 72 h) (log10 of the value in µM)

# COMPOUND, log10(CC50 at 72 h)
records = [
    ("C[C@]12C=C[C@@]3(CC[C@@H]4[C@@](C)(CO)CCC[C@@]4(C)[C@@H]3CC1)C2", 2.09),
    ("C[C@]12CC[C@H]3[C@]4(C)CCC[C@@](C)(C(=O)O)[C@H]4CC[C@@]3(C1)[C@H]1O[C@H]12", 1.81),
    ("C[C@@H]1[C@H](O)[C@@H](C)/C=C/C=C/C=C/C=C/C=C/C=C/C=C/[C@H](O[C@@H]2O[C@H](C)[C@@H](O)[C@H](N)[C@@H]2O)C[C@@H]2O[C@](O)(C[C@@H](O)C[C@@H](O)[C@H](O)CC[C@@H](O)C[C@@H](O)CC(=O)O[C@H]1C)C[C@H](O)[C@H]2C(=O)O [AMPHOTERICIN B]", 1.74),
    ("Cc1ccc(S(=O)(=O)N/N=C2/C[C@]34CC[C@H]5[C@@](C)(CCC[C@@]5(C)C(=O)O)[C@@H]3CC[C@@]2(C)C4)cc1", 0.77),
    ("C[C@]12C=C[C@@]3(CC[C@H]4[C@@](C)(CCC[C@@]4(C)C(=O)O)[C@@H]3CC1)C2 [MONOGINOIC ACID]", 2.11),
    ("CCOC(=O)[C@]1(C)CCC[C@@]2(C)[C@@H]3CC[C@@]4(C)C[C@]3(CC[C@@H]21)C/C4=N/NS(=O)(=O)c1ccc(C)cc1", 0.94),
    ("CCOC(=O)[C@]1(C)CCC[C@@]2(C)[C@@H]3CC=C(C)C[C@@]3(CC#N)CC[C@@H]21", 0.96),
    ("C[C@@]12CC[C@@H]3[C@@](CC[C@@H]4[C@](C)(CO)CCC[C@]43C)(CC1)C2", 1.47),
    ("CCOC(=O)[C@]1(C)CCC[C@@]2(C)[C@@H]3CC[C@@]4(C)C[C@]3(CC[C@@H]21)C[C@H]4O", 1.46),
    ("C[C@]12C=C[C@@]3(CC[C@@H]4[C@](C)(CO)CCC[C@@]4(C)[C@@H]3CC1)C2", 2.06),
    ("C[C@@]12CC[C@@H]3[C@@](CC[C@H]4[C@@]3(C)CCC[C@@]4(C)C(=O)O)(CC1=O)C2 [ISOSTEVIOL]", 1.83),
    ("CCOC(=O)[C@]1(C)CCC[C@@]2(C)[C@@H]3CC[C@@]4(C)C[C@]3(CC[C@@H]21)CC4=O", 1.72),
    ("CCOC(=O)[C@]1(C)CCC[C@@]2(C)[C@@H]3CC[C@@]4(C)C[C@]3(CC[C@@H]21)C/C4=N/O", 1.20),
    ("C[C@]12CC[C@H]3[C@]4(C)CCC[C@@](C)(CO)[C@H]4CC[C@@]3(C1)[C@H]1O[C@H]12", 2.07),
]
